test: in vitro; details: human, hela cells, % viability

>  <compound>
CN(Cc1ccc2ncccc2c1)C(=O)CC1CCN(CCc2ccccc2)CC1

>  <viability at 28.5 h, 10 µM / %>
108

$$$$
>  <compound>
CN(CC(=O)Nc1sc2c(c1C#N)CCCC2)Cc1cnn(C)c1

>  <viability at 28.5 h, 10 µM / %>
92.8

$$$$
>  <compound>
CCCc1[nH]nc(O)c1CCc1c(F)cccc1Cl

>  <viability at 28.5 h, 10 µM / %>
93.8

$$$$
>  <compound>
O=C(/C=C/c1ccc([N+](=O)[O-])cc1)Nc1ccc(O)cc1C(=O)O

>  <viability at 28.5 h, 10 µM / %>
81

$$$$
>  <compound>
CSc1cc(C)c(O)c(CO)c1

>  <viability at 28.5 h, 10 µM / %>
85.7

$$$$
>  <compound>
CC1=C[C@@H](CNC(=O)NC2CCCCC2)[C@H](C(C)C)C[C@H]1CC(=O)O

>  <viability at 28.5 h, 10 µM / %>
80.3

$$$$
>  <compound>
COC(=O)c1sc(N2CCOCC2)c(C#N)c1N

>  <viability at 28.5 h, 10 µM / %>
101

$$$$
>  <compound>
O=C(c1ccncc1)c1ccc(N2CCN(C3CC(=O)N(Cc4ccccc4)C3=O)CC2)cc1 (stereo not drawn)

>  <viability at 28.5 h, 10 µM / %>
106

$$$$
>  <compound>
O=C(COc1ccc(NS(=O)(=O)c2ccc3oc4cc([N+](=O)[O-])ccc4c3c2)cc1)N1CCOCC1

>  <viability at 28.5 h, 10 µM / %>
100

$$$$
>  <compound>
Cc1ccc(Cl)cc1NC(=O)C1CC(=O)N(Cc2ccccn2)C1 (stereo not drawn)

>  <viability at 28.5 h, 10 µM / %>
101

$$$$
>  <compound>
Cc1cc(NS(=O)(=O)c2ccc(Oc3ccccc3)cc2)n(C)n1

>  <viability at 28.5 h, 10 µM / %>
96.2

$$$$
>  <compound>
COc1ccc(C(=O)N2CCC(Cc3ccccc3)CC2)cc1

>  <viability at 28.5 h, 10 µM / %>
95.8

$$$$
>  <compound>
N#Cc1ccc(C(=O)N2CCN3C(=O)[C@H](Cc4ccc(F)cc4)NC(=O)[C@H]3C2)cc1

>  <viability at 28.5 h, 10 µM / %>
106

$$$$
>  <compound>
COCCN1C(=O)CO[C@H]2CN(C(=O)Nc3ccc(F)cc3)C[C@H]21

>  <viability at 28.5 h, 10 µM / %>
85.3

$$$$
>  <compound>
O=C(COc1ccccc1)Nc1ccccc1Sc1ncnc2sc3c(c12)CCCC3

>  <viability at 28.5 h, 10 µM / %>
98.4

$$$$
>  <compound>
CCC(=O)Nc1ccc(-c2csc(N(C)C)n2)cc1 [CBK304294C]

>  <viability at 28.5 h, 10 µM / %>
103

$$$$
>  <compound>
CCOC(=O)c1[nH]c2ccccc2c1NC(=O)c1ccc(OC(F)(F)F)cc1

>  <viability at 28.5 h, 10 µM / %>
87.8

$$$$
>  <compound>
COc1ccc(C(C)C)cc1-c1cnc2[nH]c(=O)n([C@@H](CO)C(C)C)c2n1

>  <viability at 28.5 h, 10 µM / %>
90.3

$$$$
>  <compound>
COC(=O)[C@@H](C)NC(=O)[C@H]1CN(C(=O)c2cccnc2)CCN1C(=O)c1cccs1

>  <viability at 28.5 h, 10 µM / %>
82.4

$$$$
>  <compound>
CCOC(=O)c1c(NC(=O)Cc2ccccc2)sc2c1CCC2

>  <viability at 28.5 h, 10 µM / %>
88.4

$$$$
>  <compound>
CCCNC(=O)CN1C(=O)N2CCCN=C2c2ccccc21

>  <viability at 28.5 h, 10 µM / %>
86

$$$$
>  <compound>
Cc1ccccc1C(=O)N1CCN(S(=O)(=O)c2sc(C(=O)O)c(C)c2C(=O)O)CC1

>  <viability at 28.5 h, 10 µM / %>
102

$$$$
>  <compound>
Cc1c(Cc2c(Cl)cccc2Cl)c(=O)n(C)n1C

>  <viability at 28.5 h, 10 µM / %>
97.2

$$$$
>  <compound>
Cc1ccc(NC(=O)Cc2ccc(N(C)C)cc2)c(C)n1

>  <viability at 28.5 h, 10 µM / %>
104

$$$$
>  <compound>
Cc1nnc(C(C)Sc2nnc(-c3ccc(F)cc3)n2CC2CCCO2)o1 (stereo not drawn)

>  <viability at 28.5 h, 10 µM / %>
94.4

$$$$
>  <compound>
Clc1cccc(CN2CCC(N3CCN(c4ccccc4)CC3)CC2)c1 [CBK264690G]

>  <viability at 28.5 h, 10 µM / %>
98.7

$$$$
>  <compound>
Cc1ccc(S(=O)(=O)Nc2ccsc2C(=O)Nc2ccc(F)cc2)cc1

>  <viability at 28.5 h, 10 µM / %>
91

$$$$
>  <compound>
CCNC(=O)N1CC2(CCN(CCOc3ccc(OC)cc3)CC2)c2ccccc21 [CBK144600T]

>  <viability at 28.5 h, 10 µM / %>
98.4

$$$$
>  <compound>
CC(NC(=O)c1ncoc1-c1ccc(F)cc1)c1ccncc1 (stereo not drawn)

>  <viability at 28.5 h, 10 µM / %>
100

$$$$
>  <compound>
CN(Cc1ccccc1)Cc1cc(CC2(NCc3ccccc3)COC2)no1

>  <viability at 28.5 h, 10 µM / %>
88.9

$$$$
>  <compound>
Cc1cnc2c(c1)cc(C(F)(F)F)n2CC(=O)NC1CC1

>  <viability at 28.5 h, 10 µM / %>
105

$$$$
>  <compound>
COc1ccc(Cn2nc(NC(=O)c3cn(C)c4ccccc34)c3ccccc32)cc1

>  <viability at 28.5 h, 10 µM / %>
57.2

$$$$
>  <compound>
CN1CCN(CCCNC(=O)N(C)C2CCN(C)C2)CC1 (stereo not drawn)

>  <viability at 28.5 h, 10 µM / %>
96.4

$$$$
